method_summary: Skin cell toxicity assay with HaCaT (alamarBlue)
Type: cell-based, human
condition_context: human, HaCaT cells (keratinocytes), ED50 HaCaT
Square brackets hold non-standard residues; d marks the D form. Peptide text beside a SMILES is read from it. Gly(N-(CH2)6NH2) = NCCCCCCNCC(=O)O; Nphe = O=C(O)CNCc1ccccc1; Nlys = NCCCCNCC(=O)O
Quick reference for CC50 at 24 h among some compounds

>  <compound>
NCCCCNCC(=O)N(CC(=O)N(CC(=O)N(CCCCN)CC(=O)N(CC(=O)N(CC(N)=O)Cc1ccccc1)Cc1ccccc1)Cc1ccccc1)Cc1ccccc1 [Peptoid 6, (NLysNpheNphe)2] (H-[Nlys][Nphe][Nphe][Nlys][Nphe][Nphe]-NH2)

>  <CC50 at 24 h>
100 µM

$$$$
>  <compound>
C[C@@H](c1ccccc1)N(CC(N)=O)C(=O)CN(Cc1ccc(F)cc1)C(=O)CN(CCCCN)C(=O)CN(C(=O)CN(Cc1ccc(F)cc1)C(=O)CN(CCCCN)C(=O)CN(C(=O)CN(Cc1ccc(F)cc1)C(=O)CN(CCCCN)C(=O)CN(C(=O)CN(Cc1ccc(F)cc1)C(=O)CNCCCCN)[C@@H](C)c1ccccc1)[C@@H](C)c1ccccc1)[C@@H](C)c1ccccc1

>  <CC50 at 24 h>
20 µM

$$$$
>  <compound>
NCCCCCCNCC(=O)N(CC(=O)N(CC(=O)N(CCCCCCN)CC(=O)N(CC(=O)N(CC(=O)N(CCCCCCN)CC(=O)N(CC(=O)N(CC(N)=O)Cc1ccccc1)Cc1ccccc1)Cc1ccccc1)Cc1ccccc1)Cc1ccccc1)Cc1ccccc1 [Peptoid 2, (NahNpheNphe)3] (H-[Gly(N-(CH2)6NH2)][Nphe][Nphe][Gly(N-(CH2)6NH2)][Nphe][Nphe][Gly(N-(CH2)6NH2)][Nphe][Nphe]-NH2)

>  <CC50 at 24 h>
100 µM

$$$$
>  <compound>
NCCCCNCC(=O)N(CC(=O)N(CC(=O)N(CCCCN)CC(=O)N(CC(=O)N(CC(=O)N(CCCCN)CC(=O)N(CC(=O)N(CC(N)=O)Cc1ccccc1)Cc1ccccc1)Cc1ccccc1)Cc1ccccc1)Cc1ccccc1)Cc1ccccc1

>  <CC50 at 24 h>
100 µM

$$$$
